Reported GRmax, 72 h is given for each of the following compounds.
- System: MCF12A
- ASSAY REMARKS: GRmax, 72 h; higher = less effect;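 also: breast cell lines in 384-well plates, nine doses across a 10^4 range, Dye Drop imaging of viable cells vs DMSO and time-zero plates, GR 0 means no net growth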
REPORTED PROPERTY: GRmax, 72 h (GR)

CN1CC[C@H](c2c(O)cc(O)c3c(=O)cc(-c4ccccc4Cl)oc23)[C@H](O)C1 [Flavopiridol] (max 1 µM) = -0.15
COc1cccc2c1C(=O)c1c(O)c3c(c(O)c1C2=O)C[C@@](O)(C(=O)CO)C[C@@H]3O[C@H]1C[C@H](N)[C@H](O)[C@H](C)O1 [Doxorubicin] (max 3.162 µM) = -0.138
O=C1NC(=O)[C@@H](c2cn3c4c(cccc24)CCC3)[C@@H]1c1c[nH]c2ccccc12 [Tivantinib/ARQ197] (max 10 µM) = -0.0779
CCN1CCN(Cc2ccc(Nc3ncc(F)c(-c4cc(F)c5nc(C)n(C(C)C)c5c4)n3)nc2)CC1 (max 10 µM) = 0.393
